# Target Or Test System: T1, TrmTS (TK1257 gene product) (Thermococcus kodakarensis KUW1, UniProt Q5JGM1 1-355)
# T1 sequence: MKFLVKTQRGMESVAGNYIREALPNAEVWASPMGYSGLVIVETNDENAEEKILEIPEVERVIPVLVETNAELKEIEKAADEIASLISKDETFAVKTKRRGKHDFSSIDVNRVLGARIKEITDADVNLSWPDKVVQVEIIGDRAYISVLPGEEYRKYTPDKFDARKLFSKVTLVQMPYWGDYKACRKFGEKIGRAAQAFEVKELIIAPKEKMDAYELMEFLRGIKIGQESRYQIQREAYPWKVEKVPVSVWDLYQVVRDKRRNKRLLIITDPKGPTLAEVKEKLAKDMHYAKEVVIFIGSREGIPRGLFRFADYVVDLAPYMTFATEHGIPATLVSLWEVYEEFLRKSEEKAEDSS
# Method Description: competition (inhibition of methylation of wild-type tRNA-Trp transcript); SAM; competitor against wild-type tRNA-Trp transcript; Inhibition assay conditions (buffer, salt, pH, temperature) not given in the material
# Condition Parameters: protein: recombinant; tags: none (untagged; native start and stop codons in pET30a); chain copies: 2; tRNA cloverleaf
Experimental Readout: IC50

# Binder, Experimental Readout, Reported Value
measured = [
    ("tRNA-Trp C6G-G67C transcript (G6-C67) (structured_RNA) RNA: GGGGGGGUGGUGUAGCCUGGUCCAUCAUCGCGGGCUCCAGACCCGCGGACCGGGGUUCAAAUCCCCGCCCCCCCACCA", "IC50", "~30 µM"),
]
